settings: in methanol, 278.45 K
MEASUREMENT LABEL: solubility (mole fraction)
Number only, please.

Exercise: Entry under review: `CCCc1nc2c(C)cc(-c3nc4ccccc4n3C)cc2n1Cc1ccc(-c2ccccc2C(=O)O)cc1` . Reported solubility (mole fraction)?
Solution: 6.03e-05

###

conditions: in ethyl acetate, 333.65 K
MEASUREMENT LABEL: solubility (mole fraction)

Exercise: Tell me the measured solubility (mole fraction) of `CCCc1nc2c(C)cc(-c3nc4ccccc4n3C)cc2n1Cc1ccc(-c2ccccc2C(=O)O)cc1` , please.
Solution: 0.000148

###

conditions: in chloroform, 303.95 K
MEASUREMENT LABEL: solubility (mole fraction)

Exercise: # input molecule: `CCCc1nc2c(C)cc(-c3nc4ccccc4n3C)cc2n1Cc1ccc(-c2ccccc2C(=O)O)cc1` ; wanted: its solubility (mole fraction)
Solution: 0.00747

###

conditions: in chloroform, 278.75 K
MEASUREMENT LABEL: solubility (mole fraction)

Exercise: Bench note: what solubility (mole fraction) did `CCCc1nc2c(C)cc(-c3nc4ccccc4n3C)cc2n1Cc1ccc(-c2ccccc2C(=O)O)cc1` show?
Solution: 0.00533

###

conditions: in dichloromethane, 298.05 K
MEASUREMENT LABEL: solubility (mole fraction)
Answer with a number only.

Exercise: Reported solubility (mole fraction) for `CCCc1nc2c(C)cc(-c3nc4ccccc4n3C)cc2n1Cc1ccc(-c2ccccc2C(=O)O)cc1` : what is it?
Solution: 0.00216

###

settings: in chloroform, 296.95 K
MEASUREMENT LABEL: solubility (mole fraction)
# answer = number (no unit)

Exercise: Look at this compound and give its reported solubility (mole fraction). `CCCc1nc2c(C)cc(-c3nc4ccccc4n3C)cc2n1Cc1ccc(-c2ccccc2C(=O)O)cc1`
Solution: 0.00701

###

conditions: in chloroform, 298.15 K
MEASUREMENT LABEL: solubility (mole fraction)
Just the number, please, no unit after it.

Exercise: Fill in: solubility (mole fraction) of `CCCc1nc2c(C)cc(-c3nc4ccccc4n3C)cc2n1Cc1ccc(-c2ccccc2C(=O)O)cc1` is ___
Solution: 0.00725

###

settings: in isopropanol, 321.55 K
MEASUREMENT LABEL: solubility (mole fraction)
Answer using only a numeral; do not append any unit.

Exercise: Which solubility (mole fraction) is listed for `CCCc1nc2c(C)cc(-c3nc4ccccc4n3C)cc2n1Cc1ccc(-c2ccccc2C(=O)O)cc1` ?
Solution: 7.41e-05

###

conditions: in benzene, 324.35 K
MEASUREMENT LABEL: solubility (mole fraction)
// no unit, no text: just the number

Exercise: Which measured solubility (mole fraction) value corresponds to `CCCc1nc2c(C)cc(-c3nc4ccccc4n3C)cc2n1Cc1ccc(-c2ccccc2C(=O)O)cc1` ?
Solution: 0.000361

###

details: in benzene, 316.15 K
MEASUREMENT LABEL: solubility (mole fraction)
Form field (numeric): enter value without unit.

Exercise: Requested read-out: solubility (mole fraction). Entry: `CCCc1nc2c(C)cc(-c3nc4ccccc4n3C)cc2n1Cc1ccc(-c2ccccc2C(=O)O)cc1`
Solution: 0.000289

###

settings: in isopropanol, 338.35 K
MEASUREMENT LABEL: solubility (mole fraction)
Reply with the value as a number alone.

Exercise: What solubility (mole fraction) value was documented for this compound, `CCCc1nc2c(C)cc(-c3nc4ccccc4n3C)cc2n1Cc1ccc(-c2ccccc2C(=O)O)cc1` ?
Solution: 0.000157

###

conditions: in ethyl acetate, 317.95 K
MEASUREMENT LABEL: solubility (mole fraction)
Could you keep your reply to the number by itself?

Exercise: Quick one: solubility (mole fraction) for `CCCc1nc2c(C)cc(-c3nc4ccccc4n3C)cc2n1Cc1ccc(-c2ccccc2C(=O)O)cc1` ?
Solution: 8.83e-05

###

details: in acetone, 316.25 K
MEASUREMENT LABEL: solubility (mole fraction)
Number only, please.

Exercise: Quick one: solubility (mole fraction) for `CCCc1nc2c(C)cc(-c3nc4ccccc4n3C)cc2n1Cc1ccc(-c2ccccc2C(=O)O)cc1` ?
Solution: 0.000141

###

conditions: in ethanol, 313.45 K
MEASUREMENT LABEL: solubility (mole fraction)
Keep the answer to the number alone.

Exercise: Would you kindly share the measured solubility (mole fraction) for `CCCc1nc2c(C)cc(-c3nc4ccccc4n3C)cc2n1Cc1ccc(-c2ccccc2C(=O)O)cc1` ?
Solution: 0.000117

###

conditions: in ethyl acetate, 283.65 K
MEASUREMENT LABEL: solubility (mole fraction)
API note: the answer field is a bare number with no unit suffix.

Exercise: Query: solubility (mole fraction); subject: `CCCc1nc2c(C)cc(-c3nc4ccccc4n3C)cc2n1Cc1ccc(-c2ccccc2C(=O)O)cc1`
Solution: 2.47e-05

###

conditions: in chloroform, 308.35 K
MEASUREMENT LABEL: solubility (mole fraction)
Just the number, please, no unit after it.

Exercise: Query: solubility (mole fraction); subject: `CCCc1nc2c(C)cc(-c3nc4ccccc4n3C)cc2n1Cc1ccc(-c2ccccc2C(=O)O)cc1`
Solution: 0.00771

###

settings: in acetone, 325.75 K
MEASUREMENT LABEL: solubility (mole fraction)
Just the number, please.

Exercise: Value lookup for solubility (mole fraction); key = `CCCc1nc2c(C)cc(-c3nc4ccccc4n3C)cc2n1Cc1ccc(-c2ccccc2C(=O)O)cc1`
Solution: 0.000193

###

settings: in methanol, 307.35 K
MEASUREMENT LABEL: solubility (mole fraction)
Quick one: just the number, no unit, thanks!

Exercise: GET /values?readout=solubility (mole fraction)&item= `CCCc1nc2c(C)cc(-c3nc4ccccc4n3C)cc2n1Cc1ccc(-c2ccccc2C(=O)O)cc1`
Solution: 0.000153

###

settings: in ethanol, 277.85 K
MEASUREMENT LABEL: solubility (mole fraction)

Exercise: Give the measured solubility (mole fraction) of `CCCc1nc2c(C)cc(-c3nc4ccccc4n3C)cc2n1Cc1ccc(-c2ccccc2C(=O)O)cc1` .
Solution: 3.06e-05

###

conditions: in isopropanol, 316.55 K
MEASUREMENT LABEL: solubility (mole fraction)

Exercise: Item `CCCc1nc2c(C)cc(-c3nc4ccccc4n3C)cc2n1Cc1ccc(-c2ccccc2C(=O)O)cc1` has what recorded solubility (mole fraction)?
Solution: 5.62e-05

###

conditions: in dichloromethane, 278.35 K
MEASUREMENT LABEL: solubility (mole fraction)
Answer with a bare number; do not write a unit.

Exercise: Find the recorded solubility (mole fraction) belonging to `CCCc1nc2c(C)cc(-c3nc4ccccc4n3C)cc2n1Cc1ccc(-c2ccccc2C(=O)O)cc1` and report it.
Solution: 0.0015

###

details: in methanol, 330.05 K
MEASUREMENT LABEL: solubility (mole fraction)
Lab note: jot the number down without any unit.

Exercise: Which solubility (mole fraction) is listed for `CCCc1nc2c(C)cc(-c3nc4ccccc4n3C)cc2n1Cc1ccc(-c2ccccc2C(=O)O)cc1` ?
Solution: 0.000315

###

conditions: in ethanol, 308.35 K
MEASUREMENT LABEL: solubility (mole fraction)
Please reply with the number alone, leaving off any unit.

Exercise: Would you kindly share the measured solubility (mole fraction) for `CCCc1nc2c(C)cc(-c3nc4ccccc4n3C)cc2n1Cc1ccc(-c2ccccc2C(=O)O)cc1` ?
Solution: 9e-05

###

conditions: in ethyl acetate, 329.45 K
MEASUREMENT LABEL: solubility (mole fraction)
Simply state the number, no unit and no words.

Exercise: Item `CCCc1nc2c(C)cc(-c3nc4ccccc4n3C)cc2n1Cc1ccc(-c2ccccc2C(=O)O)cc1` has what recorded solubility (mole fraction)?
Solution: 0.000123

###

settings: in isopropanol, 288.45 K
MEASUREMENT LABEL: solubility (mole fraction)
In your answer, state the number alone without any accompanying words.

Exercise: Which value of solubility (mole fraction) has been reported for `CCCc1nc2c(C)cc(-c3nc4ccccc4n3C)cc2n1Cc1ccc(-c2ccccc2C(=O)O)cc1` in the records?
Solution: 1.55e-05

###

details: in toluene, 278.65 K
MEASUREMENT LABEL: solubility (mole fraction)
Kindly provide the number alone.

Exercise: Consider the compound `CCCc1nc2c(C)cc(-c3nc4ccccc4n3C)cc2n1Cc1ccc(-c2ccccc2C(=O)O)cc1` and give its measured solubility (mole fraction).
Solution: 3.55e-05
